test system: Endogenous Huntingtin Protein; experiment: Endogenous Huntingtin Protein Assay (ELISA-based MSD electrochemiluminescence); format: cell-based; settings: Table 2; MSD plates coated with MW1 (expanded polyglutamine) or MAB2166 capture antibody; "inactive" = result above the detection limit of the assay
experimental_readout: log10 IC50 (log10 of the value in nM)

>>> measured_value("C[C@@H]1CN(c2ncc(-c3ccc(-c4ccc5nn(C)cc5c4)cc3O)nn2)C[C@H](C)N1")
0.61
>>> measured_value("CC(C)C1CN(c2ncc(-c3ccc(-c4cc(F)c5nn(C)cc5c4)cc3O)nn2)CCN1 (centres unmarked)")
0.60
>>> measured_value("COc1cc(-c2ccc(-c3cnc(N4C[C@@H](C)N[C@@H](C(C)C)C4)nn3)c(O)c2)ncn1")
1.05
>>> measured_value("COc1cc(-c2ccc(-c3cnc(N4C[C@@H](C(C)C)N[C@@H](C)C4)nn3)c(O)c2)ncn1")
1.57
>>> measured_value("CC(C)[C@H]1CN(c2ncc(-c3ccc(-c4nc5cccnc5s4)cc3O)nn2)CCN1")
2.79
>>> measured_value("CCC[C@H]1CN(c2ncc(-c3ccc(-c4cn[nH]c4)cc3O)nn2)CCN1")
1.71
>>> measured_value("[2H]C([2H])([2H])n1cc(-c2ccc(-c3cnc(N4CCNC(C(C)(C)O)C4)nn3)c(O)c2)cn1 (centres unmarked)")
1.23
>>> measured_value("CC(C)[C@H]1CN(c2ncc(-c3ccc(-n4ccnc4)cc3O)nn2)CCN1")
1.78
>>> measured_value("C[C@@H]1CN(c2ncc(-c3ccc(-c4cc(F)c5nn(C)cc5c4)cc3O)nn2)C[C@H](C)N1")
0.72
>>> measured_value("CC(C)(O)[C@H]1CN(c2ncc(-c3ccc(-c4c[nH]nc4F)cc3O)nn2)CCN1")
1.39
>>> measured_value("Oc1cc(-c2ccncc2)ccc1-c1cnc(N2CCN[C@@H](C3CC3)C2)nn1")
1.46
>>> measured_value("Cc1cncc(-c2ccc(-c3cnc(N4CCN[C@@H](C(C)C)C4)nn3)c(O)c2)n1")
2.80
>>> measured_value("CC(C)[C@H]1CN(c2ncc(-c3ccc(-c4nnc(C5CC5)o4)cc3O)nn2)CCN1")
2.72
>>> measured_value("CC(C)[C@H]1CN(c2ncc(-c3ncc(-c4cc(F)c5nn(C)cc5c4)cc3O)nn2)CCN1")
0.89
>>> measured_value("CC(C)[C@H]1CN(c2ncc(-c3ccc(-n4nccn4)cc3O)nn2)CCN1")
1.27
>>> measured_value("C[C@@H]1CN(c2ncc(-c3ccc(-c4cn[nH]c4F)cc3O)nn2)C[C@H](C2CC2)N1")
0.64
>>> measured_value("CC(C)[C@H]1CN(c2ncc(-c3ccc(-c4c[nH]nc4F)cc3O)nn2)CCN1")
0.64
>>> measured_value("CC1CN(c2ncc(-c3ccc(-c4cc(F)c5nn(C)cc5c4)cc3O)nn2)CCN1 (centres unmarked)")
0.32
>>> measured_value("C[C@@H]1CN(c2ncc(-c3ccc(-n4nccn4)cc3O)nn2)C[C@H](C2CCC2)N1")
2.02
>>> measured_value("[2H]C([2H])([2H])n1cc(-c2ccc(-c3cnc(N4CCNC(CC)C4)nn3)c(O)c2)cn1 (centres unmarked)")
1.80
>>> measured_value("Cc1nc2nc(-c3ccc(-c4cnc(N5CCN[C@@H](C6CC6)C5)nn4)c(O)c3)nc(C)c2[nH]1")
0.77
>>> measured_value("CN1CCn2ncc(-c3ccc(-c4cnc(N5CCN[C@@H](C6CC6)C5)nn4)c(O)c3)c21")
2.88
>>> measured_value("Cn1nnc2nc(-c3ccc(-c4cnc(N5CCN[C@@H](C6CC6)C5)nn4)c(O)c3)ccc21")
1.15
>>> measured_value("Oc1cc(-c2c[nH]nc2F)ccc1-c1cnc(N2CCN[C@H](C3CC3)C2)nn1")
0.84
>>> measured_value("[2H]C([2H])([2H])Oc1cc(-c2ccc(-c3cnc(N4CCNC(C(C)(C)O)C4)nn3)c(O)c2)ncn1 (centres unmarked)")
0.94
>>> measured_value("CC(C)[C@H]1CN(c2ncc(-c3ccc(-c4cnnn4C)cc3O)nn2)CCN1")
3.00
>>> measured_value("CCc1cc(-c2ccc(-c3cnc(N4CCN[C@@H](C(C)C)C4)nn3)c(O)c2)ncn1")
2.14
>>> measured_value("CC(C)[C@H]1CN(c2ncc(-c3ccc(-c4cnn5ccccc45)cc3O)nn2)CCN1")
2.58
>>> measured_value("COc1cc(-c2ccc(-c3cnc(N4C[C@@H](C)N[C@@H](C(C)(C)C)C4)nn3)c(O)c2)ncn1")
2.53
>>> measured_value("Cc1cn2nc(-c3ccc(-c4cnc(N5C[C@@H](C)N[C@@H](C)C5)nn4)c(O)c3)cc(C)c2n1")
0.56
>>> measured_value("CC(C)[C@H]1CN(c2ncc(-c3ccc(-c4cc(F)c5nn(C)cc5c4)cc3O)nn2)CCN1")
0.73
>>> measured_value("CC(C)[C@H]1CN(c2ncc(-c3ncc(-n4nccn4)cc3O)nn2)CCN1")
2.37
>>> measured_value("Oc1cc(-c2ncsn2)ccc1-c1cnc(N2CCN[C@@H](C3CC3)C2)nn1")
0.89
>>> measured_value("Cc1cn2cc(-c3ccc(-c4cnc(N5CCN[C@@H](C(C)C)C5)nn4)c(O)c3)nc(C)c2n1")
0.93
>>> measured_value("CC[C@H]1CN(c2ncc(-c3ccc(-c4cnc5nn(C)nc5c4)cc3O)nn2)C[C@@H](C)N1")
1.56
